Listing: Distribution of radioactivity, Intestine of selected molecules
assay explanation: Radioactivity distribution in mouse body after intravenous administration of radioiodine labeled forms
assay conditions: mouse, intravenous administration, intestine, 60 min after administration; mean (SD) of 3 to 5 mice

Here are 4 molecules together with their reported answers.
1) CNc1ccc(C=Cc2cc(=O)c3cc([125I])ccc3o2)cc1 [[125I]Compound 47]
19.16 (2.63) % ID/g
2) COc1ccc(-c2cc(=O)c3cc([125I])ccc3o2)cc1 [[125I]Compound 19]
30.05 (3.61) % ID/g
3) O=c1cc(-c2ccc(O)cc2)oc2ccc([125I])cc12 [[125I]Compound 20]
27.28 (0.48) % ID/g
4) Nc1ccc(C=Cc2cc(=O)c3cc([125I])ccc3o2)cc1 [[125I]Compound 46]
16.08 (2.44) % ID/g

Enquiry: Report Distribution of radioactivity, Intestine for CN(C)c1ccc(C=Cc2cc(=O)c3cc([125I])ccc3o2)cc1 [[125I]Compound 48] please.
Return: 14.91 (4.18) % ID/g

Enquiry: Moving on to the next molecule: CN(C)c1ccc(-c2cc(=O)c3cc([125I])ccc3o2)cc1 [[125I]Compound 11]
Return: 18.64 (2.05) % ID/g

Enquiry: Also check COc1cc(/C=C/C(=O)c2cccc([125I])c2)ccc1O [[125I]Compound 31]
Return: 29.31 (3.26) % ID/g

Enquiry: Then this molecule: CNc1ccc(-c2cc(=O)c3cc([125I])ccc3o2)cc1 [[125I]Compound 10]
Return: 21.48 (3.17) % ID/g

* * *

Distribution of radioactivity, Kidney values, listed per item
assay explanation: Radioactivity distribution in mouse body after intravenous administration of radioiodine labeled forms
assay conditions: mouse, intravenous administration, kidney, 30 min after administration; mean (SD) of 3 to 5 mice
Description: Thereafter, 100 μl (0.5 to 1 μCi) of each labeled form was intravenously administered to each group consisting of three to five 5-week-old ddY male mice (25 to 30 g). 2, 10, 30, and 60 minutes after the intravenous administration, such mice were decapitated, and blood was collected. Thereafter, organs were excised, and the weight and radioactivity thereof were then measured.

These solved cases illustrate the format of a correct answer.
1. CN(C)c1ccc(C=Cc2cc(=O)c3cc([125I])ccc3o2)cc1 [[125I]Compound 48]
5.16 (1.06) % ID/g
2. Nc1ccc(C=Cc2cc(=O)c3cc([125I])ccc3o2)cc1 [[125I]Compound 46]
4.91 (1.07) % ID/g
3. CN(C)c1ccc(-c2cc(=O)c3cc([125I])ccc3o2)cc1 [[125I]Compound 11]
3.40 (0.31) % ID/g
4. O=c1cc(-c2ccc(O)cc2)oc2ccc([125I])cc12 [[125I]Compound 20]
6.45 (0.84) % ID/g
5. COc1ccc(-c2cc(=O)c3cc([125I])ccc3o2)cc1 [[125I]Compound 19]
4.51 (1.59) % ID/g
6. CNc1ccc(-c2cc(=O)c3cc([125I])ccc3o2)cc1 [[125I]Compound 10]
3.85 (0.33) % ID/g

Enquiry: Can you share its Distribution of radioactivity, Kidney? I mean this compound: CNc1ccc(C=Cc2cc(=O)c3cc([125I])ccc3o2)cc1 [[125I]Compound 47]
Return: 5.48 (0.97) % ID/g

Enquiry: Item: COc1cc(/C=C/C(=O)c2cccc([125I])c2)ccc1O [[125I]Compound 31]
Return: 5.00 (2.27) % ID/g
